test.summary: Oral bioavailability in dog at 2 mg/kg
Type: ADME, organism-based, Canis lupus familiaris
condition.label: in vivo
quantity.name: bioavailability (%)
Unit % implied. Number only.

stdin: Field request: bioavailability | item: `CCS(=O)(=O)N[C@@H]1C[C@]2(C)O[C@]1(C)[C@@H]1C(=O)N(c3ccc(C#N)c(C(F)(F)F)c3)C(=O)[C@@H]12`
stdout: 79

* * *

Test system: Rattus norvegicus
test.summary: In vivo antagonist activity at androgen receptor in immature Sprague-Dawley rat prostate weight model assessed as testosterone propionate-induced weight of seminal vesicles over full body weight at 10 mg/kg, po qd administered for 4 days
Assay type: functional
Set-up: scale not given: the % may be the effect or the level left
# label = yes if Activity < 30% else no

molecule	study.system	group
CCS(=O)(=O)N[C@@H]1C[C@]2(C)O[C@]1(C)[C@@H]1C(=O)N(c3ccc(C#N)c(C(F)(F)F)c3)C(=O)[C@@H]12	Rattus norvegicus	yes
C[C@]12O[C@@](C)(C[C@H]1N)[C@H]1C(=O)N(c3ccc(C#N)c(C(F)(F)F)c3)C(=O)[C@H]12	Rattus norvegicus	no
C[C@]12O[C@@](C)(C[C@H]1NS(C)(=O)=O)[C@H]1C(=O)N(c3ccc(C#N)c(C(F)(F)F)c3)C(=O)[C@H]12	Rattus norvegicus	yes
CC(O)(CS(=O)(=O)c1ccc(F)cc1)C(=O)Nc1ccc(C#N)c(C(F)(F)F)c1 (stereo not drawn) [BICALUTAMIDE]	Rattus norvegicus	no
C[C@]12O[C@@](C)(C[C@H]1NS(=O)(=O)c1ccccc1F)[C@H]1C(=O)N(c3ccc(C#N)c(C(F)(F)F)c3)C(=O)[C@H]12	Rattus norvegicus	yes

stdin: Strictly below 30%: is that where Activity of `CC(C)NC(=O)N[C@@H]1C[C@]2(C)O[C@]1(C)[C@@H]1C(=O)N(c3ccc(C#N)c(C(F)(F)F)c3)C(=O)[C@@H]12` sits?
stdout: no

stdin: Another molecule to check: `CNS(=O)(=O)N[C@@H]1C[C@]2(C)O[C@]1(C)[C@@H]1C(=O)N(c3ccc(C#N)c(C(F)(F)F)c3)C(=O)[C@@H]12`
stdout: no

stdin: Another molecule to check: `CCC(=O)N[C@@H]1C[C@]2(C)O[C@]1(C)[C@@H]1C(=O)N(c3ccc(C#N)c(C(F)(F)F)c3)C(=O)[C@@H]12`
stdout: no
